test system: Blumeria graminis f. sp. tritici; Synonym: Erysiphe graminis f. sp. tritici; experiment: Wheat powdery mildew (ERYSGT) disease control; assay type: in vivo; conditions: 24 h, 1 Day Protectant, high volume, read-out: Disease Control ERYSGT 1 DP
For each record, write down the corresponding pest or weed control at 100 ppm.

Reference set, count: 3
Molecule	pest or weed control at 100 ppm
COc1ccnc(C(=O)N[C@H]2CCC[C@H](Oc3ccccc3)[C@@H](Oc3ccccc3)[C@H](C)OC2=O)c1OCOC(=O)C(C)C [F36]	< 0%
COc1ccnc(C(=O)N[C@H]2CCC[C@H](Oc3ccccc3)[C@@H](Oc3ccccc3)[C@H](C)OC2=O)c1OCOC(C)=O [F20]	0 to 80%
COc1ccnc(C(=O)N[C@H]2CCC[C@H](OCC(C)C)[C@@H](OC3CCCC3)[C@H](C)OC2=O)c1OCOC(=O)C(C)C [F38]	0 to 80%

Would you mind giving pest or weed control at 100 ppm for every molecule in the list below?
1. COc1ccnc(C(=O)N[C@H]2CCC[C@H](OCC(C)C)[C@@H](OCC(C)C)[C@H](C)OC2=O)c1OCOC(C)=O [F29]
2. COc1ccnc(C(=O)N[C@H]2CCC[C@H](Oc3ccccc3)[C@@H](OCC(C)C)[C@H](C)OC2=O)c1OCOC(=O)C(C)C [F35]
3. COc1ccnc(C(=O)N[C@H]2CCC[C@H](OCC(C)C)[C@@H](OC3CCCC3)[C@H](C)OC2=O)c1OCOC(C)=O [F39]
4. COc1ccnc(C(=O)N[C@H]2CCC[C@H](Oc3ccccc3)[C@@H](OCC(C)C)[C@H](C)OC2=O)c1OCOC(C)=O [F28]

Result block:
1. 80 to 100%
2. 0 to 80%
3. 80 to 100%
4. 0 to 80%

Would you mind giving pest or weed control at 100 ppm for every molecule in the list below?
1. COc1ccnc(C(=O)N[C@H]2CCC[C@H](OCc3ccccc3)[C@@H](OCc3ccccc3)[C@H](C)OC2=O)c1OCOC(C)=O [F30]
2. COc1ccnc(C(=O)N[C@H]2CCC[C@H](OCC(C)C)[C@@H](Oc3ccccc3)[C@H](C)OC2=O)c1OCOC(=O)C(C)C [F34]
3. COc1ccnc(C(=O)N[C@H]2CCC[C@H](OCC(C)C)[C@@H](Oc3ccccc3)[C@H](C)OC2=O)c1OCOC(C)=O [F26]

Result block:
1. < 0%
2. 0 to 80%
3. 0 to 80%

Would you mind giving pest or weed control at 100 ppm for every molecule in the list below?
1. COc1ccnc(C(=O)N[C@H]2CCC[C@H](OCC(C)C)[C@@H](OCC(C)C)[C@H](C)OC2=O)c1OCOC(=O)C(C)C [F37]
2. COc1ccnc(C(=O)N[C@H]2CCC[C@H](OCc3ccccc3)[C@@H](Oc3ccccc3)[C@H](C)OC2=O)c1OCOC(C)=O [F31]

Result block:
["0 to 80%", "0 to 80%"]

###

test system: Puccinia triticina; Synonym: Puccinia recondite f. sp. tritici; assay: Wheat brown rust (PUCCRT) disease control on wheat seedlings; format: in vivo; conditions: Puccinia triticina, 24 h; Wheat Brown Rust; 1 Day Protectant; high volume application, 100 ppm; read-out: Disease Control PUCCRT 1 DP 100 ppm
Metric: pest or weed control at 100 ppm

Reference set, count: 2
Smiles Notation	pest or weed control at 100 ppm
CCCO[C@H]1CCC[C@H](NC(=O)c2nccc(OC)c2OC(C)=O)C(=O)O[C@@H](C)[C@@H]1Oc1ccc(-c2ccccc2)cc1	80 to 100%
COc1ccnc(C(=O)N[C@H]2CCC[C@H](Oc3ccccc3)[C@@H](OC(=O)C3CC3)[C@H](C)OC2=O)c1OCOC(=O)C(C)C	80 to 100%

# context switch: different molecule, same pest or weed control at 100 ppm
Measured pest or weed control at 100 ppm (Puccinia triticina; Synonym: Puccinia recondite f. sp. tritici), entry COc1ccnc(C(=O)N[C@H]2CCC[C@H](Oc3ccccc3)[C@@H](OC(=O)C3CCCC3)[C@H](C)OC2=O)c1OC(C)=O : 80 to 100%

###

For each record, write down the corresponding pest or weed control at 100 ppm.
tested on: Puccinia triticina; Synonym: Puccinia recondite f. sp. tritici; assay: Wheat brown rust (PUCCRT) disease control on wheat seedlings; format: in vivo; conditions: Puccinia triticina, 72 h; High volume application, 100 ppm; 3 Day Curative; read-out: PUCCRT 3DC disease control

Reference set, count: 8
Compound	Metric	Experimental Result
COc1ccnc(C(=O)N[C@H]2CCC[C@H](OCC(C)C)[C@@H](Oc3ccc(C)cc3)[C@H](C)OC2=O)c1OC(C)=O	pest or weed control at 100 ppm	80 to 100%
CCCO[C@H]1[C@H](C)OC(=O)[C@@H](NC(=O)c2nccc(OC)c2O)CCC[C@@H]1OCC(C)C	pest or weed control at 100 ppm	80 to 100%
COc1ccnc(C(=O)N[C@H]2CCC[C@H](OCC(C)C)[C@@H](OCCC(C)OC)[C@H](C)OC2=O)c1OCOC(C)=O (some centres unmarked)	pest or weed control at 100 ppm	80 to 100%
COc1ccnc(C(=O)N[C@H]2CCC[C@H](Oc3ccc(F)cc3)[C@@H](Oc3ccc(F)cc3)[C@H](C)OC2=O)c1OCOC(=O)C(C)C	pest or weed control at 100 ppm	80 to 100%
COc1ccnc(C(=O)N[C@H]2CCC[C@H](Oc3ccccc3)[C@@H](Oc3ccccc3)[C@H](C)OC2=O)c1OCOC(=O)C(C)C	pest or weed control at 100 ppm	80 to 100%
COc1ccnc(C(=O)N[C@H]2CCC[C@H](OC(=O)C3CCCC3)[C@@H](OC(=O)C3CCCC3)[C@H](C)OC2=O)c1OC(C)=O	pest or weed control at 100 ppm	80 to 100%
COc1ccnc(C(=O)N[C@H]2CCC[C@H](OCc3ccccc3)[C@@H](OCc3ccccc3)[C@H](C)OC2=O)c1O	pest or weed control at 100 ppm	80 to 100%
COc1ccnc(C(=O)N[C@H]2CCC[C@H](OCC(C)C)[C@@H](OCCCc3ccccc3)[C@H](C)OC2=O)c1OC(C)=O	pest or weed control at 100 ppm	80 to 100%

Would you mind giving pest or weed control at 100 ppm for every compound in the list below?
1. CCCCCO[C@H]1[C@H](C)OC(=O)[C@@H](NC(=O)c2nccc(OC)c2OCOC(C)=O)CCC[C@@H]1OC1CCCC1
2. COc1ccnc(C(=O)N[C@H]2CCC[C@H](OCc3ccccc3)[C@@H](Oc3ccccc3)[C@H](C)OC2=O)c1OCOC(C)=O

Result block:
["80 to 100%", "80 to 100%"]

Would you mind giving pest or weed control at 100 ppm for every compound in the list below?
1. COc1ccnc(C(=O)N[C@H]2CCC[C@H](OCC(C)C)[C@@H](OC(=O)C3CCCC3)[C@H](C)OC2=O)c1OC(C)=O
2. COc1ccnc(C(=O)N[C@H]2CCC[C@H](Oc3ccccc3)[C@@H](OC3CCCC3)[C@H](C)OC2=O)c1O
3. CCCO[C@H]1[C@H](C)OC(=O)[C@@H](NC(=O)c2nccc(OC)c2OC(C)=O)CCC[C@@H]1Oc1ccccc1
4. COc1ccnc(C(=O)N[C@H]2CCC[C@H](OCC(C)C)[C@@H](OCCCc3ccccc3)[C@H](C)OC2=O)c1OCOC(C)=O

Result block:
80 to 100%
80 to 100%
80 to 100%
80 to 100%

###

For each record, write down the corresponding pest or weed control at 121.5 g/ha.
system: Mycosphaerella graminicola; Anamorph: Septoria tritici; test: Leaf blotch of wheat (SEPTTR) disease control on wheat seedlings; type: in vivo; details: Zymoseptoria tritici, 72 h; Wheat Leaf Blotch; 3 Day Curative; low volume application, 121.5 g/H; read-out: Disease Control SEPTTR 3 DC 121.5 g/H

Reference set, count: 2
Smiles Notation	Metric	Experimental Result
COc1ccnc(C(=O)N[C@H]2CCC[C@H](OCC(C)C)[C@@H](OC)[C@H](C)OC2=O)c1OCOC(C)=O	pest or weed control at 121.5 g/ha	< 0%
COc1ccnc(C(=O)N[C@H]2CCC[C@H](Oc3ccccc3)[C@@H](OC)[C@H](C)OC2=O)c1OCOC(=O)C(C)C	pest or weed control at 121.5 g/ha	0 to 80%

Sure, the documented pest or weed control at 121.5 g/ha for CCCO[C@H]1CCC[C@H](NC(=O)c2nccc(OC)c2OC(C)=O)C(=O)O[C@@H](C)[C@@H]1Oc1ccc(Br)cc1 is 80 to 100%

###

test system: Magnaporthe grisea; Anamorph: Pyricularia oryzae; test: whole plant or invertebrate; type: in vivo; conditions: 24 h, read-out: PYRIOR 1 DP disease control
Metric: pest or weed control at 100 ppm

Would you mind giving pest or weed control at 100 ppm for every compound in the list below?
1. CCCO[C@H]1CCC[C@H](NC(=O)c2nccc(OC)c2OCOC(C)=O)C(=O)O[C@@H](C)[C@@H]1OC1CCCC1
2. COc1ccnc(C(=O)N[C@H]2CCC[C@H](Oc3ccccc3)[C@@H](Oc3ccccc3)[C@H](C)OC2=O)c1OCOC(=O)C(C)C
3. COc1ccnc(C(=O)N[C@H]2CCC[C@H](OCCCC(F)(F)F)[C@@H](OC3CCCC3)[C@H](C)OC2=O)c1OC(C)=O
4. COc1ccnc(C(=O)N[C@H]2CCC[C@H](OCC(C)C)[C@@H](OC)[C@H](C)OC2=O)c1OCOC(C)=O
5. CCCO[C@H]1CCC[C@H](NC(=O)c2nccc(OC)c2OC(C)=O)C(=O)O[C@@H](C)[C@@H]1Oc1ccccc1

Result block:
1: 80 to 100%; 2: 80 to 100%; 3: 80 to 100%; 4: 80 to 100%; 5: 80 to 100%

Would you mind giving pest or weed control at 100 ppm for every compound in the list below?
1. COc1ccnc(C(=O)N[C@H]2CCC[C@H](Oc3ccccc3)[C@@H](OCC(C)C)[C@H](C)OC2=O)c1OCOC(C)=O
2. CCCO[C@H]1CCC[C@H](NC(=O)c2nccc(OC)c2OCOC(C)=O)C(=O)O[C@@H](C)[C@@H]1Oc1ccccc1
3. COc1ccnc(C(=O)N[C@H]2CCC[C@H](OCC(C)C)[C@@H](OC)[C@H](C)OC2=O)c1OCOC(=O)C(C)C
4. COc1ccnc(C(=O)N[C@H]2CCC[C@H](OCC(C)C)[C@@H](OCC(C)C)[C@H](C)OC2=O)c1OCOC(C)=O

Result block:
["80 to 100%", "80 to 100%", "80 to 100%", "80 to 100%"]

Would you mind giving pest or weed control at 100 ppm for every compound in the list below?
1. COc1ccnc(C(=O)N[C@H]2CCC[C@H](OCCCC(F)(F)F)[C@@H](OC3CCCC3)[C@H](C)OC2=O)c1OCOC(C)=O
2. COc1ccnc(C(=O)N[C@H]2CCC[C@H](Oc3ccccc3)[C@@H](Oc3ccccc3)[C@H](C)OC2=O)c1OCOC(C)=O
3. COc1ccc(O[C@H]2CCC[C@H](NC(=O)c3nccc(OC)c3OCOC(=O)C(C)C)C(=O)O[C@@H](C)[C@@H]2OC2CCCC2)cc1
4. COc1ccnc(C(=O)N[C@H]2CCC[C@H](Oc3ccccc3)[C@@H](OCC(C)C)[C@H](C)OC2=O)c1OCOC(=O)C(C)C
5. C=C(C)CO[C@H]1CCC[C@H](NC(=O)c2nccc(OC)c2OCOC(=O)C(C)C)C(=O)O[C@@H](C)[C@@H]1OC

Result block:
1. 80 to 100%
2. 80 to 100%
3. 80 to 100%
4. 80 to 100%
5. 80 to 100%
